- Method description: qHTS assay to identify small molecule agonists of the TGF-beta/Smad signaling pathway - cell viability counter screen (AID 1346829); note: top concentration of the series differs between compounds; % is set by controls: 0 for no effect and ±100 for the full control effect; nearly all actives have a fitted effect of over 45% in size
- Measurement context: SBE-bla HEK293T viability, CellTiter-Glo luminescence, 5 h; series mostly up to 76.8 µM
Inconclusive results are not listed. Calls of active or inactive are those of the source. Calls come from the whole dose curve; as a rule, active = well fitted cell-killing curve with a large enough effect in the repeat runs; inconclusive = weak or mixed curves, or effect the other way; inactive = flat fitted curve, though single readings scatter.
Experimental readout: activity change, negative = cytotoxicity

Worked set:
O=C(O)CNCC(=O)O; -7.04% [at 6.97 µM] (inactive)
Cc1cc(N)c2cc(NC(=O)Nc3ccc4nc(C)cc(N)c4c3)ccc2n1; inactive
CCc1c(C(=O)NN2CCCCC2)nn(-c2ccc(Cl)cc2Cl)c1-c1ccc(Br)cc1; inactive
CC1CCC(=O)C1=O (stereo not drawn); inactive
NCc1ccccc1Sc1ccccc1CO; inactive

Give its activity change, negative = cytotoxicity value. Item: O=C(O)c1ccccc1Cl
inactive
